System: HEL cells
Conditions: anti-VZV table

| MOLECULE | MTC (HEL) |
| --- | --- |
| NCCCCCCNC(=O)C1NC(=O)C2NC(=O)C(NC(=O)C3NC(=O)C4NC(=O)C(Cc5ccc(c(Cl)c5)Oc5cc3cc(c5O)Oc3ccc(cc3Cl)C2O)NC(=O)C(N)c2ccc(O)c(c2)Oc2cc(O)cc4c2)c2ccc(O)c(c2)-c2c(O)cc(O)cc21 (stereo not shown) | ≧20-50 μM |
| CCCCCCCNC(=O)C1NC(=O)C2NC(=O)C(NC(=O)C3NC(=O)C(CC(N)=O)NC(=O)C(NC(=O)C(CC(C)C)NC)C(O)c4ccc(c(Cl)c4)Oc4cc3cc(c4OC3OC(CO)C(O)C(O)C3OC3CC(C)(N)C(O)C(C)O3)Oc3ccc(cc3)C2OC2CC(C)(N)C(O)C(C)O2)c2ccc(O)c(c2)-c2c(O)cc(O)cc21 (stereo not shown) | ≧20-50 μM |

###

EC50: recorded values
Tested on: CMV
Test: Anti-CMV assay: virus-induced cytopathicity in HEL cell cultures
Conditions: read-out: EC50 CMV AD-169; CMV strain AD-169, HEL cell cultures
API: value field is a number in nM; no unit string.

| MOLECULE | UOM | MEASURED RESULT |
| --- | --- | --- |
| CCCCc1ccc(CN2CCN(C(=O)C3NC(=O)C4NC(=O)C(NC(=O)C5NC(=O)C6NC(=O)C(Cc7ccc(c(Cl)c7)Oc7cc5cc(c7O)Oc5ccc(cc5Cl)C4O)NC(=O)C(N)c4ccc(O)c(c4)Oc4cc(O)cc6c4)c4ccc(O)c(c4)-c4c(O)cc(O)cc43)CC2)cc1 (centres unmarked) | nM | 2400 |

Next molecule, please.
Request: State its EC50: CCCCOc1ccc(CN2CCN(C(=O)C3NC(=O)C4NC(=O)C(NC(=O)C5NC(=O)C6NC(=O)C(Cc7ccc(c(Cl)c7)Oc7cc5cc(c7O)Oc5ccc(cc5Cl)C4O)NC(=O)C(N)c4ccc(O)c(c4)Oc4cc(O)cc6c4)c4ccc(O)c(c4)-c4c(O)cc(O)cc43)CC2)cc1 (centres unmarked)
Response: 1900

###

Tested on: HEL cells
Settings: anti-VZV table
OBSERVATION TYPE: MTC (HEL)

| COMPOUND | TARGET OR TEST SYSTEM | MEASURED RESULT |
| --- | --- | --- |
| NC1C(=O)NC2Cc3ccc(c(Cl)c3)Oc3cc4cc(c3O)Oc3ccc(cc3Cl)C(O)C3NC(=O)C(NC(=O)C4NC(=O)C(NC2=O)c2cc(O)cc(c2)Oc2cc1ccc2O)c1ccc(O)c(c1)-c1c(O)cc(O)cc1C(C(=O)N1CCN(Cc2ccc4ccccc4c2)CC1)NC3=O (stereo not drawn) | HEL cells | 20 to 200 µM |
| CNC(=O)C1NC(=O)C2NC(=O)C(NC(=O)C3NC(=O)C4NC(=O)C(Cc5ccc(c(Cl)c5)Oc5cc3cc(c5O)Oc3ccc(cc3Cl)C2O)NC(=O)C(N)c2ccc(O)c(c2)Oc2cc(O)cc4c2)c2ccc(O)c(c2)-c2c(O)cc(O)cc21 (stereo not drawn) | HEL cells | ≧20-200 μM |
| CCCCCCCCCNCc1c(O)cc2c(c1O)-c1cc(ccc1O)C1NC(=O)C3NC(=O)C4NC(=O)C(Cc5ccc(c(Cl)c5)Oc5cc3cc(c5O)Oc3ccc(cc3Cl)C(O)C(NC1=O)C(=O)NC2C(=O)NCCCN(C)C)NC(=O)C(N)c1ccc(O)c(c1)Oc1cc(O)cc4c1 (stereo not drawn) | HEL cells | 5 to 50 µM |
| NC1C(=O)NC2Cc3ccc(c(Cl)c3)Oc3cc4cc(c3O)Oc3ccc(cc3Cl)C(O)C3NC(=O)C(NC(=O)C4NC(=O)C(NC2=O)c2cc(O)cc(c2)Oc2cc1ccc2O)c1ccc(O)c(c1)-c1c(cc(O)c(CN2CCN(N=Cc4ccc(Cl)cc4)CC2)c1O)C(C(=O)O)NC3=O (stereo not drawn) | HEL cells | ≧20-200 μM |

###

Test system: HEL cells
Details: read-out: CC50 (HEL); HEL cells; anti-VZV table
OBSERVATION TYPE: CC50 (µM)
API: value field is a number in µM; no unit string.

Consider the following illustrative entries.
| COMPOUND | TARGET OR TEST SYSTEM | MEASURED RESULT |
| --- | --- | --- |
| CCCCOc1ccc(CN2CCN(C(=O)C3NC(=O)C4NC(=O)C(NC(=O)C5NC(=O)C6NC(=O)C(Cc7ccc(c(Cl)c7)Oc7cc5cc(c7O)Oc5ccc(cc5Cl)C4O)NC(=O)C(N)c4ccc(O)c(c4)Oc4cc(O)cc6c4)c4ccc(O)c(c4)-c4c(O)cc(O)cc43)CC2)cc1 (centres unmarked) | HEL cells | 44 |
| CCCCCCCCCCNC(=O)C1NC(=O)C2NC(=O)C(NC(=O)C3NC(=O)C4NC(=O)C(Cc5ccc(c(Cl)c5)Oc5cc3cc(c5O)Oc3ccc(cc3Cl)C2O)NC(=O)C(N)c2ccc(O)c(c2)Oc2cc(O)cc4c2)c2ccc(O)c(c2)-c2c1cc(O)c(CNCCCN(C)C)c2O (centres unmarked) | HEL cells | 169 |
| CCCCCCCCCNCc1c(O)cc2c(c1O)-c1cc(ccc1O)C1NC(=O)C3NC(=O)C4NC(=O)C(Cc5ccc(c(Cl)c5)Oc5cc3cc(c5O)Oc3ccc(cc3Cl)C(O)C(NC1=O)C(=O)NC2C(=O)NCCCN(C)C)NC(=O)C(N)c1ccc(O)c(c1)Oc1cc(O)cc4c1 (centres unmarked) | HEL cells | 107 |
| NC1C(=O)NC2Cc3ccc(c(Cl)c3)Oc3cc4cc(c3OCc3ccc(-c5ccccc5)cc3)Oc3ccc(cc3Cl)C(O)C3NC(=O)C(NC(=O)C4NC(=O)C(NC2=O)c2cc(O)cc(c2)Oc2cc1ccc2O)c1ccc(O)c(c1)-c1c(O)cc(O)cc1C(C(=O)O)NC3=O (centres unmarked) | HEL cells | 48 |
| CCCCN(CCCC)c1ccc(CNC(=O)C2NC(=O)C3NC(=O)C(NC(=O)C4NC(=O)C5NC(=O)C(Cc6ccc(c(Cl)c6)Oc6cc4cc(c6O)Oc4ccc(cc4Cl)C3O)NC(=O)C(N)c3ccc(O)c(c3)Oc3cc(O)cc5c3)c3ccc(O)c(c3)-c3c(O)cc(O)cc32)cc1 (centres unmarked) | HEL cells | 98 |
| NC1C(=O)NC2Cc3ccc(c(Cl)c3)Oc3cc4cc(c3O)Oc3ccc(cc3Cl)C(O)C3NC(=O)C(NC(=O)C4NC(=O)C(NC2=O)c2cc(O)cc(c2)Oc2cc1ccc2O)c1ccc(O)c(c1)-c1c(O)cc(O)cc1C(C(=O)N1CCN(Cc2ccc(C=Cc4ccccc4)cc2)CC1)NC3=O (centres unmarked) | HEL cells | 44 |
| CN(C)CCCNC(=O)C1NC(=O)C2NC(=O)C(NC(=O)C3NC(=O)C4NC(=O)C(Cc5ccc(c(Cl)c5)Oc5cc3cc(c5O)Oc3ccc(cc3Cl)C2O)NC(=O)C(N)c2ccc(O)c(c2)Oc2cc(O)cc4c2)c2ccc(O)c(c2)-c2c1cc(O)c(CN1CCN(Cc3ccc(-c4ccccc4)cc3)CC1)c2O (centres unmarked) | HEL cells | 105 |

Request: State its CC50: CCCCc1ccc(CNC(=O)C2NC(=O)C3NC(=O)C(NC(=O)C4NC(=O)C(CC(N)=O)NC(=O)C(NC(=O)C(CC(C)C)NC)C(O)c5ccc(c(Cl)c5)Oc5cc4cc(c5OC4OC(CO)C(O)C(O)C4OC4CC(C)(N)C(O)C(C)O4)Oc4ccc(cc4)C3OC3CC(C)(N)C(O)C(C)O3)c3ccc(O)c(c3)-c3c(O)cc(O)cc32)cc1 (centres unmarked)
Response: 98

###

Tested on: HIV-2(ROD)
Assay: Inhibition of HIV-2 (ROD)-induced cytopathicity (giant cell formation) in CEM cells
Type: cell-based
Conditions: read-out: EC50 HIV-2 (concentration required to inhibit HIV-induced giant cell formation by 50%); HIV-2, CEM cell cultures
EC50: recorded values

Consider the following illustrative entries.
| COMPOUND | EC50 |
| --- | --- |
| CCCCc1ccc(CN2CCN(Cc3c(O)cc4c(c3O)-c3cc(ccc3O)C3NC(=O)C5NC(=O)C(CC(N)=O)NC(=O)C(NC(=O)C(CC(C)C)NC)C(O)c6ccc(c(Cl)c6)Oc6cc5cc(c6OC5OC(CO)C(O)C(O)C5OC5CC(C)(N)C(O)C(C)O5)Oc5ccc(cc5)C(OC5CC(C)(N)C(O)C(C)O5)C(NC3=O)C(=O)NC4C(=O)NC)CC2)cc1 (stereo not shown) | > 10 µM |
| NC1C(=O)NC2Cc3ccc(c(Cl)c3)Oc3cc4cc(c3O)Oc3ccc(cc3Cl)C(O)C3NC(=O)C(NC(=O)C4NC(=O)C(NC2=O)c2cc(O)cc(c2)Oc2cc1ccc2O)c1ccc(O)c(c1)-c1c(cc(O)c(CN2CCN(N=Cc4ccc(Cl)cc4)CC2)c1O)C(C(=O)O)NC3=O (stereo not shown) | 22 µM |
| CNC(=O)C1NC(=O)C2NC(=O)C(NC(=O)C3NC(=O)C(CC(N)=O)NC(=O)C(NC(=O)C(CC(C)C)NC)C(O)c4ccc(c(Cl)c4)Oc4cc3cc(c4O)Oc3ccc(cc3)C2O)c2ccc(O)c(c2)-c2c1cc(O)c(CN1CCN(Cc3ccc(-c4ccccc4)cc3)CC1)c2O (stereo not shown) | 5.5 µM |

Request: State its EC50: CNC(CC(C)C)C(=O)NC1C(=O)NC(CC(N)=O)C(=O)NC2C(=O)NC3C(=O)NC(C(=O)NC(C(=O)N(C(=O)NC4CCCCC4)C4CCCCC4)c4cc(O)cc(O)c4-c4cc3ccc4O)C(O)c3ccc(cc3)Oc3cc2cc(c3O)Oc2ccc(cc2Cl)C1O (stereo not shown)
Response: 32.5 µM
